molecular target: furin, P09958; assay: furin cleavage Z-score vs untreated control; higher = more cleavage, active = 3.5 or more, inactive = 1 or less, 8 variable residues between constant flanks; details: 7.5 min;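 also: purified furin at 1:10 enzyme:substrate in 50 mM HEPES pH 7.5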
Sequence (P09958 whole entry): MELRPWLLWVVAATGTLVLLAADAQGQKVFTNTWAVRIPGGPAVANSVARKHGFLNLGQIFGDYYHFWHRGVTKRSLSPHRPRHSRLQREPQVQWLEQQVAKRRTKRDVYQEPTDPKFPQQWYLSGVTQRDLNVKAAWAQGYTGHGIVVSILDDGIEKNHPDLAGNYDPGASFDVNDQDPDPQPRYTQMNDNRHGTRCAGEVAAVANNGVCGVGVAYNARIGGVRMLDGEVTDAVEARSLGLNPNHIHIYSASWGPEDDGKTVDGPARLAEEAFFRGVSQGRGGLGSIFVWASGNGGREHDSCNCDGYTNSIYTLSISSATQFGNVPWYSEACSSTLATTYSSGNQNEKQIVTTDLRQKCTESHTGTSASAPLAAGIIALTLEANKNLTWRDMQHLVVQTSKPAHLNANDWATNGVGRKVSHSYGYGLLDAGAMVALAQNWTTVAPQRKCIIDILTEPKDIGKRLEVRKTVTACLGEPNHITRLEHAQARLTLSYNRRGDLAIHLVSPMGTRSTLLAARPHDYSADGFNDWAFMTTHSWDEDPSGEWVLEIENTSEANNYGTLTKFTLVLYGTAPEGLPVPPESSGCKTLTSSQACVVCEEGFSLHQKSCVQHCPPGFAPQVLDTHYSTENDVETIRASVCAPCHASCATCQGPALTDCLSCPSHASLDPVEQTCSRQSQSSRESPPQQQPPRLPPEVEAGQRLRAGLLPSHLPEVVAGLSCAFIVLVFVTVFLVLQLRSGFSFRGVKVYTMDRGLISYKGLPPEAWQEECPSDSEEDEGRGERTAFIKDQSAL
The list shows a part of the results. The hit rate among all sequences tested is not known here.
experimentalReadout: furin cleavage Z-score
The reply should be a number, written without any unit.

// known answers, use as guide
| residueCodes | observedMeasurement |
| --- | --- |
| CARLKRRQEEAGNASASA [FS-2709] | -0.805 |
| CAYRARLSRGAGNASASA [FS-636] | 0.776 |
| CANTARQRRAAGNASASA [FS-1548] | 10.2 |

The reported value for CARVRRQIHAAGNASASA [FS-2319] in terms of furin cleavage Z-score is 8.32

Summary for this sequence, CATTPCSGSIAGNASASA [HC1924] : furin cleavage Z-score is -0.658

Form field furin cleavage Z-score, entry CARVRRAATPAGNASASA [FS-2621] : 11.8

According to the records, this sequence CATTVRLRAYAGNASASA [HC928] displays furin cleavage Z-score of 0.53

GET /value?item= CAEIEVPCHRAGNASASA [HC2444] &field=furin cleavage Z-score returns 1.1

Entry under test: CARLKRVVPDAGNASASA [FS-2221] . Its furin cleavage Z-score was 3.21
